Taken from ChEMBL document CHEMBL4513216.

We begin with a simple list: items and their reported cytotoxicity at 10 µM.
assay: Toxicity liver stage against HepG2, at 10uM; format: cell-based; set-up: test concentration 10 uM, cell line HepG2-A16-CD81EGFP; settings: human, HepG2-A16-CD81EGFP cells; read-out: INHIBITION
State the answer as a number, implicitly in %.

Ask: Determine from records and report cytotoxicity at 10 µM for COc1ccc(-c2nc(CN3CCCS3(=O)=O)co2)cc1
Result: -6.24

Ask: Determine from records and report cytotoxicity at 10 µM for CC1CCCCN1C(=O)c1cn(-c2ccc(C(F)(F)F)cn2)nn1 (stereo unspecified)
Result: -56.5

Ask: Determine from records and report cytotoxicity at 10 µM for O=C1CN(c2cc(-c3ccccc3F)nc3ccnn23)CCCN1
Result: 2.77

Ask: Determine from records and report cytotoxicity at 10 µM for CCCc1noc(CN2CCCC2c2noc(C3CC3)n2)n1 (stereo unspecified)
Result: -13

Ask: Determine from records and report cytotoxicity at 10 µM for CC(=O)N1CCC2(CC1)NC(=O)[C@H]1CN(Cc3cccnc3)C[C@H]12
Result: -1.77

Ask: Determine from records and report cytotoxicity at 10 µM for Cc1cc(C)c(CNC(=O)N2CCC(N3CCCC3)CC2)c(=O)[nH]1
Result: -3.52
